Tested on: MCF10A
Measurement notes: 5+ nucleoli phenotype percent effect (relative to siNT 0% and siKIF11 100%); higher = more cells with five or more nucleoli
Details: 20 nM; 72 h
Reported 5+ nucleoli phenotype percent effect is given for each of the following sequences.
Reply numerically in %, unit not repeated.

For orientation, consider the following solved cases.
Primary sequence | Assayed target | Observable | Unit | Reported measurement
GGCUAGCAACAGCGCUUACCU [hsa-miR-621] | MCF10A | 5+ nucleoli phenotype percent effect | % | -15.8
UUGUUCUCAAACUGGCUGUCAGA [hsa-miR-7156-5p] | MCF10A | 5+ nucleoli phenotype percent effect | % | 25.8

Query: Query the reported 5+ nucleoli phenotype percent effect for MCF10A; item: UGCAAGACGGAUACUGUCAUCU [hsa-miR-4696]
Reply: -15.7

Query: Query the reported 5+ nucleoli phenotype percent effect for MCF10A; item: UGGAUGACAGUGGAGGCCU [hsa-miR-6744-5p]
Reply: -19.1

Query: Query the reported 5+ nucleoli phenotype percent effect for MCF10A; item: UCUGCCAUAGGAAGCUUGGAGUGG [hsa-miR-6817-5p]
Reply: 1.17

====

System: MCF10A
Measurement notes: percent viability (nuclei count relative to siNT); higher = more viable cells
Details: 20 nM; 72 h
Entries whose percent viability is below 60% take Yes; entries at or above 60% take No.

Take a look at these entries with their results.
Primary sequence | Assigned category
UUAGUGAAGGCUAUUUUAAUU [hsa-miR-3606-5p] | No
UGCAGGGGUCGGGUGGGCCAGG [hsa-miR-6722-3p] | Yes
CUCUAGAGGGAAGCACUUUCUG [hsa-miR-526a] | Yes

Query: Check if percent viability falls below 60% for AGGGGGAAAGUUCUAUAGUCC [hsa-miR-625-5p] .
Reply: Yes

Query: Check if percent viability falls below 60% for UGGGGGAGGAAGGACAGGCCAU [hsa-miR-7111-5p] .
Reply: Yes

Query: Check if percent viability falls below 60% for AGGAGGGAGGAGAUGGGCCAAGUU [hsa-miR-1249-5p] .
Reply: Yes

Query: Check if percent viability falls below 60% for AAAAGUAAUUGCGGUUUUUGC [hsa-miR-548au-5p] .
Reply: No

Query: Check if percent viability falls below 60% for UAGCAAGAGAACCAUUACCAUU [hsa-miR-451b] .
Reply: No

Query: Check if percent viability falls below 60% for ACAGGUGAGGUUCUUGGGAGCC [hsa-miR-125a-3p] .
Reply: No

Query: Check if percent viability falls below 60% for CUUUCAGUCGGAUGUUUGCAGC [hsa-miR-30a-3p] .
Reply: No

Query: Check if percent viability falls below 60% for GUGACAUCACAUAUACGGCAGC [hsa-miR-489] .
Reply: Yes

Query: Check if percent viability falls below 60% for AGAGCUGGCUGAAGGGCAG [hsa-miR-4487] .
Reply: Yes

====

System: MCF10A
Measurement notes: percent viability (nuclei count relative to siNT); higher = more viable cells
Details: 20 nM; 72 h
Entries whose percent viability is below 40% take YES; entries at or above 40% take NO.

Take a look at these entries with their results.
Primary sequence | Assayed target | Assigned category
AUGCUACUCGGAAAUCCCACUGA [hsa-miR-5089-3p] | MCF10A | NO
CAUUACAGCACAGCCAUUCU [hsa-miR-6504-3p] | MCF10A | NO

Query: Check if percent viability falls below 40% for UCGGGGAUCAUCAUGUCACGAGA [hsa-miR-542-5p] .
Reply: NO

Query: Check if percent viability falls below 40% for UUUAGAGACGGGGUCUUGCUCU [hsa-miR-1303] .
Reply: NO

Query: Check if percent viability falls below 40% for AGACUGACGGCUGGAGGCCCAU [hsa-miR-4513] .
Reply: NO

Query: Check if percent viability falls below 40% for GUGUGGCCGGCAGGCGGGUGG [hsa-miR-7108-5p] .
Reply: NO

Query: Check if percent viability falls below 40% for GACAGAGUGCCACUUACUGAA [hsa-miR-4797-5p] .
Reply: YES

====

System: MCF10A
Measurement notes: 5+ nucleoli phenotype percent effect (relative to siNT 0% and siKIF11 100%); higher = more cells with five or more nucleoli
Details: 20 nM; 72 h
Reported 5+ nucleoli phenotype percent effect is given for each of the following sequences.
Reply numerically in %, unit not repeated.

For orientation, consider the following solved cases.
Primary sequence | Unit | 5+ nucleoli phenotype percent effect
AAGGGCUUCCUCUCUGCAGGAC [hsa-miR-3158-3p] | % | -9.95
CUCGGGCGGAGGUGGUUGAGUG [hsa-miR-4750-5p] | % | -7.37
UUCACUGGAGUUUGUUUCAAUA [hsa-miR-653-3p] | % | -0.303
GUGGGUACGGCCCAGUGGGGGG [hsa-miR-1225-5p] | % | 64.9
AAAGCUGGGUUGAGAAGG [hsa-miR-320e] | % | 2.27
GAGAAAUGCUGGACUAAUCUGC [hsa-miR-5680] | % | 27.3
UUAUUGCUUAAGAAUACGCGUAG [hsa-miR-137] | % | -22.6
AAUGUAGAGAUUGAUCAAAAU [hsa-miR-3668] | % | 0.392

Query: Requested read-out: 5+ nucleoli phenotype percent effect. Entry: UGUGUGGAUCCUGGAGGAGGCA [hsa-miR-3911]
Reply: -47

====

Test system: MCF10A
Measurement notes: 5+ nucleoli phenotype percent effect (relative to siNT 0% and siKIF11 100%); higher = more cells with five or more nucleoli
Details: 20 nM; 72 h
Observable: 5+ nucleoli phenotype percent effect (%)
Reply numerically in %, unit not repeated.

Primary sequence | Observable | Reported measurement
UGCCUCUUUUCCACGGCCUCAG [hsa-miR-6781-3p] | 5+ nucleoli phenotype percent effect | 2.23
UUCACAGUGGCUAAGUUCCGC [hsa-miR-27a-3p] | 5+ nucleoli phenotype percent effect | -6.22
CUCGAGUUGGAAGAGGCG [hsa-miR-4444] | 5+ nucleoli phenotype percent effect | -29.6

Query: Requested read-out: 5+ nucleoli phenotype percent effect. Entry: CAAAGAGGAAGGUCCCAUUAC [hsa-miR-583]
Reply: -24.7

====

Tested on: MCF10A
Measurement notes: percent viability (nuclei count relative to siNT); higher = more viable cells
Details: 20 nM; 72 h
Observable: percent viability (%)
Reply numerically in %, unit not repeated.

For orientation, consider the following solved cases.
Primary sequence | Unit | percent viability
UUGGAAUAGGGGAUAUCUCAGC [hsa-miR-6505-5p] | % | 36.9
UGAGGUGACCGCAGAUGGGAA [hsa-miR-7854-3p] | % | 14.8
GCUGCACCGGAGACUGGGUAA [hsa-miR-3130-3p] | % | 65
UCCGUACAAACUCUGCUGUG [hsa-miR-3678-5p] | % | 64.4
UGGCUUCUCUUGCACACCCAG [hsa-miR-6815-3p] | % | 19.9
GCCUCUCUCGGAGUCGCUCGGA [hsa-miR-3183] | % | 77.6
UGAGCCCUGUCCUCCCGCAG [hsa-miR-1233-3p] | % | 63.8
UCUCCCUUCCUGCCCUGGCUAG [hsa-miR-4685-3p] | % | 98.4

Query: Query the reported percent viability for MCF10A; item: AUAUUAUUAGCCACUUCUGGAU [hsa-miR-4795-3p]
Reply: 27.9

Query: Query the reported percent viability for MCF10A; item: CAAAAGUGAUUGUGGUUUUUGC [hsa-miR-548az-5p]
Reply: 149

Query: Query the reported percent viability for MCF10A; item: CUGCCAGCCCCGUUCCAGGGCA [hsa-miR-3972]
Reply: 42.9

====

Tested on: hTERT RPE-1
Measurement notes: nucleolar rRNA biogenesis percent inhibition (5-EU; siNT 0%, siPOLR1A 100%); higher = stronger inhibition of nucleolar rRNA biogenesis
Details: 20 nM; 72 h
Reported nucleolar rRNA biogenesis percent inhibition is given for each of the following sequences.
Reply numerically in %, unit not repeated.

Primary sequence | Reported measurement
AAGGAGCUCACAGUCUAUUGAG [hsa-miR-28-5p] | 63.6
ACUCGGCGUGGCGUCGGUCGUG [hsa-miR-1307-3p] | 13.7
CUUAUGCAAGAUUCCCUUCUAC [hsa-miR-491-3p] | -86.4
ACCUUGGCUCUAGACUGCUUACU [hsa-miR-212-5p] | 114
CUGCCAAUUCCAUAGGUCACAG [hsa-miR-192-3p] | 136

Query: Requested read-out: nucleolar rRNA biogenesis percent inhibition. Entry: CAAUCAGCAAGUAUACUGCCCU [hsa-miR-34a-3p]
Reply: 113

Query: Requested read-out: nucleolar rRNA biogenesis percent inhibition. Entry: CGGCGGGGACGGCGAUUGGUC [hsa-miR-1908-5p]
Reply: 113

Query: Requested read-out: nucleolar rRNA biogenesis percent inhibition. Entry: GUUCUCCCAACGUAAGCCCAGC [hsa-miR-629-3p]
Reply: 70.8

Query: Requested read-out: nucleolar rRNA biogenesis percent inhibition. Entry: AGUUUUGCAGGUUUGCAUCCAGC [hsa-miR-19b-1-5p]
Reply: -48.4

Query: Requested read-out: nucleolar rRNA biogenesis percent inhibition. Entry: UGAAGGUCUACUGUGUGCCAGG [hsa-miR-493-3p]
Reply: 108

Query: Requested read-out: nucleolar rRNA biogenesis percent inhibition. Entry: UAUGGCACUGGUAGAAUUCACU [hsa-miR-183-5p]
Reply: 204

Query: Requested read-out: nucleolar rRNA biogenesis percent inhibition. Entry: AGCUUUUGGGAAUUCAGGUAGU [hsa-miR-3140-3p]
Reply: 33

Query: Requested read-out: nucleolar rRNA biogenesis percent inhibition. Entry: CAUCUGGCAUCCGUCACACAGA [hsa-miR-3126-3p]
Reply: 50.7

Query: Requested read-out: nucleolar rRNA biogenesis percent inhibition. Entry: UGCCUGUCUACACUUGCUGUGC [hsa-miR-214-5p]
Reply: 87.1

Query: Requested read-out: nucleolar rRNA biogenesis percent inhibition. Entry: UGGCAGUGUCUUAGCUGGUUGU [hsa-miR-34a-5p]
Reply: 52.6
